experiment: chemical genetic growth profiling, strain panel (AID 1159580);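 further: tested at 20 µM; growth read once vehicle control cultures reached saturation at 30 °C; 1 = growth at the plate median or of vehicle wells; lower values mean less growth of the strain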; details: S. cerevisiae deletion strains, growth OD, locus YDL074C, strain BRE1
About 2,000 (36%) of roughly 5,500 compounds were called active. Roughly 18% stayed inconclusive and do not appear here. No stated cut-off is given here; in the data, active means normalized growth mostly below about 0.91 (no sharp cut-off); inconclusive means no clear call, values can overlap the other calls; inactive means mostly above about 0.92. The list shows a part of the results.
Allowed answers: 1 (yes) = active, 0 (no) = inactive

// known answers, use as guide
# compound, classification
measured = [
    ("C/C=C(\\C)C(=O)O[C@@H]1c2c(ccc3ccc(=O)oc23)OC(C)(C)[C@@H]1OC(C)=O", "0 (no)"),
    ("CC(C)Nc1nc(Cl)nc(NC(C)C)n1", "0 (no)"),
    ("COC1CC(O[C@H]2CC[C@]3(C=O)C4CC[C@]5(C)C(C6=CC(=O)OC6)CC[C@]5(O)C4CC[C@]3(O)C2)OC(C)C1O (stereo partly drawn)", "0 (no)"),
]

Request: Could you kindly confirm the outcome this assay logged for `C[N+]1(C)C[C@H](O)[C@H](C(=O)[O-])C1` ?
Response: 0 (no)

Request: Could you kindly confirm the outcome this assay logged for C[C@@H]1CC[C@@]23CCC4(C)[C@@](C=CC5[C@@]6(C)CCC(=O)C(C)(C)C6CC[C@]54C)(OC2=O)C3[C@H]1C (stereo partly drawn) ?
Response: 0 (no)

----------
# normalized growth per entry
experiment: chemical genetic growth profiling, strain panel (AID 1159580);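 further: tested at 20 µM; growth read once vehicle control cultures reached saturation at 30 °C; 1 = growth at the plate median or of vehicle wells; lower values mean less growth of the strain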; settings: S. cerevisiae deletion strains, growth OD, strain NNK1, hits give low values
The whole screen tested about 5,500 compounds, of which about 2,000 (36%) were called active. Inconclusive results (about 18%) are left out. The list shows a part of the results.
Enter a number only.

Solved cases (5 shown):
# substance-smiles, normalized growth
data = [
    ("CN(C)/C=C1\\CSc2ccc(Cl)cc2C1=O", 0.941),
    ("CC(C)(C)NC(=S)N/N=C\\c1cc(Br)c(O)c(Br)c1", 0.959),
    ("Cc1ccc(OS(=O)(=O)c2c(Cl)sc(Cl)c2Br)c([N+](=O)[O-])n1", 0.956),
    ("O=S(=O)(c1cc(Cl)ccc1Cl)N1CCc2ccccc2C1", 0.983),
    ("N#Cc1nccnc1N1CCN(C(=O)Nc2cc(Cl)cc(Cl)c2)CC1", 0.973),
]

Then this compound:
Request: Specify reported normalized growth for the compound shown: `O=C(NNc1cc(C(F)(F)F)cc(C(F)(F)F)c1)c1cnc2n(c1=O)CCS2`
Response: 0.988

----------
assay: chemical genetic growth profiling, strain panel (AID 1159580);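 further: tested at 20 µM; growth read once vehicle control cultures reached saturation at 30 °C; 1 = growth at the plate median or of vehicle wells; lower values mean less growth of the strain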; conditions: S. cerevisiae deletion strains, growth OD, locus YJL095W, strain BCK1 (second series), hits give low values
The whole screen tested about 5,500 compounds, of which about 2,000 (36%) were called active. Roughly 18% stayed inconclusive and do not appear here. This is one part of the list.
# normalized growth per entry

# compound, normalized growth
records = [
    ("CCCCC(=O)O[C@]1(C(=O)CO)[C@@H](C)CC2C3CCC4=CC(=O)C=C[C@]4(C)[C@@]3(F)C(O)C[C@@]21C (stereo partly drawn)", "0.982 (inactive)"),
    ("O=C(O)CCc1nc(-c2ccccc2)c(-c2ccccc2)o1", "0.959 (inactive)"),
    ("CCCCCC(O)C1C(=O)OC(C)C(O)/C=C/C=C/C=C/C=C/C=C(\\C)C(O)CC(O)CC(O)CC(O)CC(O)CC(O)CC1O (stereo not drawn)", "0.988 (inactive)"),
    ("O=C1CC2(CCCC2)CC(=O)N1CCCCN1CCN(c2ncccn2)CC1", "0.995 (inactive)"),
    ("CCCc1nn(C)c2c(=O)[nH]c(-c3cc(S(=O)(=O)N4CCN(C)CC4)ccc3OCC)nc12", "0.986 (inactive)"),
]

Request: Specify reported normalized growth for the compound shown: `COc1cccc2c1CCC1=CC(=O)CC[C@@]12C`
Response: 1 (inactive)

Request: Specify reported normalized growth for the compound shown: CC1=CC(=O)C2C(C)(C)CCC[C@]2(C)[C@@]1(O)CCc1ccoc1 (stereo partly drawn)
Response: 0.995 (inactive)

Request: Specify reported normalized growth for the compound shown: C[C@H]1O[C@@H](O[C@H]2[C@@H](O)C[C@H](O[C@H]3[C@@H](O)C[C@H](O[C@H]4CC[C@]5(C)C6CC[C@]7(C)[C@@H](C8=CC(=O)OC8)CC[C@]7(O)C6CC[C@@H]5C4)O[C@@H]3C)O[C@@H]2C)C[C@H](O)[C@@H]1O (stereo partly drawn)
Response: 0.991 (inactive)
